# Test system: 857933-349-R-J2-PDC complex spheroid viability
# Experiment: Anticancer human tumor 857933-349-R-J2-PDC patient-derived colon adenocarcinoma cell line growth inhibition [POLQ]
# Test parameters: second compound 1 µM; first compound 0.316 µM; hits give low values
# Description: Multicellular complex tumor spheroid response to Polymerase (POL) inhibitors (novobiocin, ART-558, RP6685) in combination with a variety of drugs and investigational agents in selected tumor cell lines The POL inhibitors (novobiocin, ART-558, and RP6685) were evaluated both individually and in combination with standard of care and investigational anticancer small molecules within a complex spheroid model of solid tumors. . […]

Compound	viability, T/C, %
C#Cc1c(F)ccc2cc(O)cc(-c3ncc4c(N5CC6CCC(C5)N6)nc(OCC56CCCN5CC(F)C6)nc4c3F)c12 (stereo not given) + Nc1ccc(C#CCN(C(=O)Cc2ncc(C(F)(F)F)cc2C(F)(F)F)c2ccc(F)cc2)nn1	79.5
CCc1cc2c(N3CCc4c(cc(Cn5ccnc5)cc4-c4cn(C)nc4C(F)(F)F)C3=O)ccnc2c(OC)n1 + Nc1ccc(C#CCN(C(=O)Cc2ncc(C(F)(F)F)cc2C(F)(F)F)c2ccc(F)cc2)nn1	95.1
O=C(c1cc(Cc2n[nH]c(=O)c3ccccc23)ccc1F)N1CCN(C(=O)C2CC2)CC1 + COC1C(OC(N)=O)C(O)C(Oc2ccc3c(O)c(NC(=O)c4ccc(O)c(CC=C(C)C)c4)c(=O)oc3c2C)OC1(C)C	87.1
CC(C)n1c(=O)n(C)c2cnc3cc(F)c(-c4ccc(OCCCN5CCCCC5)nc4)cc3c21 + Cc1cccc(N(C)C(=O)C2C(O)CCN2c2nc(C)cc(C(F)(F)F)c2C#N)c1	92.6
CCc1c2c(nc3ccc(O)cc13)-c1cc3c(c(=O)n1C2)COC(=O)[C@]3(O)CC + Cc1cccc(N(C)C(=O)C2C(O)CCN2c2nc(C)cc(C(F)(F)F)c2C#N)c1	14.1

* * *

# Test system: 857933-349-R-J2-PDC complex spheroid viability
# Experiment: Anticancer human tumor 857933-349-R-J2-PDC cell line growth inhibition [POLQ];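 note: spheroids exposed to compounds for seven days before readout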
# Test parameters: second compound 1 µM; first compound 0.0316 µM; hits give low values
Recorded metric: viability, T/C (%)

Compound	Recorded metric	Endpoint result
CCc1cc2c(N3CCc4c(cc(Cn5ccnc5)cc4-c4cn(C)nc4C(F)(F)F)C3=O)ccnc2c(OC)n1 + COC1C(OC(N)=O)C(O)C(Oc2ccc3c(O)c(NC(=O)c4ccc(O)c(CC=C(C)C)c4)c(=O)oc3c2C)OC1(C)C	viability, T/C	90
COc1cc(C2c3cc4c(cc3C(OC3OC5COC(C)OC5C(O)C3O)C3COC(=O)C23)OCO4)cc(OC)c1O (stereo not given) + Cc1cccc(N(C)C(=O)C2C(O)CCN2c2nc(C)cc(C(F)(F)F)c2C#N)c1	viability, T/C	86.5
CC1COCCN1c1cc(C2(S(C)(=N)=O)CC2)nc(-c2ccnc3[nH]ccc23)n1 (stereo not given) + COC1C(OC(N)=O)C(O)C(Oc2ccc3c(O)c(NC(=O)c4ccc(O)c(CC=C(C)C)c4)c(=O)oc3c2C)OC1(C)C	viability, T/C	101
CCCS(=O)(=O)Nc1ccc(F)c(C(=O)c2c[nH]c3ncc(-c4ccc(Cl)cc4)cc23)c1F + COC1C(OC(N)=O)C(O)C(Oc2ccc3c(O)c(NC(=O)c4ccc(O)c(CC=C(C)C)c4)c(=O)oc3c2C)OC1(C)C	viability, T/C	108
CC1COCCN1c1cc(-c2ccnn2C)c2ccnc(-c3ccn[nH]3)c2n1 (stereo not given) + Nc1ccc(C#CCN(C(=O)Cc2ncc(C(F)(F)F)cc2C(F)(F)F)c2ccc(F)cc2)nn1	viability, T/C	74.9

Data origin: PubChem BioAssay AID1963836
